System: LOX IMVI melanoma
Assay: NCI-60 one-dose screen, 48 h
Conditions: 10 µM unless noted
This is part of a sample that, as a whole, favours compounds with a hit. Of some 83,000 tested, about 20% had one in any assay. Active and inactive are the calls of the source. The calls were made as follows: active = growth percent below 10; inactive = the rest.
Returns: one label drawn from label 1 for active, label 0 for inactive

COc1cc(C2CC(c3cccc(Nc4ccncc4)c3)=NN2c2ccc(Cl)cc2)cc(OC)c1OC (stereo unspecified)	label 1

Data request: Check the results log: what was the call for O=C1C(=O)c2c(nc3ncccn23)-c2ccccc21 ?
Data returned: label 1

Data request: Continue with Cc1c(C2=CCCCC2)c2ccccn2c1C(=O)c1cccc(S(=O)(=O)N2CCOCC2)c1
Data returned: label 0

Data request: Continue with [2H]C1([2H])NC([2H])([2H])C([2H])([2H])N(c2ccc(Nc3ncc4cc(C(=O)N(C)C)n(C5CCCC5)c4n3)nc2)C1([2H])[2H]
Data returned: label 0

Data request: Continue with O=S(=O)(NCCCNc1nccc(-c2c(-c3cccc(O)c3)nc3occn23)n1)c1ccc(F)cc1
Data returned: label 0

* * *

A collection of compounds and their measured growth
Test system: UACC-62 melanoma
Test: NCI-60 one-dose screen, 48 h (100 = growth as untreated, 0 = no growth, -100 = all killed)
Details: 10 µM unless noted
The panel holds about 83,000 compounds, 20% with a hit somewhere; the sample as a whole holds those more often.
// return numeric value only (unit: %, not printed)

CC1(C)CN(Cc2ccccc2)CCN1Cc1ccccc1	97.9
Clc1ccc(C2CC(c3cccc(Nc4ccncc4)c3)=NN2c2ccc(Cl)cc2)cc1 (configuration not stated)	98
Clc1ccc(N2N=C(c3cccc(Nc4ccncc4)c3)CC2c2ccc3c(c2)OCO3)cc1 (configuration not stated)	90.8

Data request: Give the reported growth for CN1CCN(C(=O)OCc2nc3c(N4CCOCC4)nc(-c4ccccc4)nc3n2C)CC1 (system: UACC-62 melanoma).
Data returned: -95.9

Data request: Continue with COc1ccc(Nc2nc(N)nc3c2CCc2occc2-3)cc1
Data returned: 93.9

Data request: Continue with Nc1c(C(=O)Nc2ccc(Cl)cc2)cc(-c2nc3ccccc3s2)c(=O)n1NS(=O)(=O)c1ccc(Cl)cc1
Data returned: 89.8

Data request: Continue with CC(C)(O)C1CCCN1C(=O)c1ccccc1I (configuration not stated)
Data returned: 64.3

Data request: Continue with O=C1Nc2c(ccc(Cl)c2Cl)/C1=C/c1ccc([N+](=O)[O-])cc1
Data returned: 102

* * *

Tested on: NCI-H522 lung
Assay: NCI-60 one-dose screen, 48 h (100 = growth as untreated, 0 = no growth, -100 = all killed)
Conditions: 10 µM unless noted
The panel holds about 83,000 compounds, 20% with a hit somewhere; the sample as a whole holds those more often.
Assign Y whenever growth does not fall below 60%; assign N whenever it does.

COc1ccc(/C=C\c2nc3ccccc3s2)cc1OP(=O)(O)O	N

Data request: Confirm if growth reported for the compound CC(=O)NCCCS(=O)(=O)O is 60% or above.
Data returned: Y

Data request: Continue with c1ccc(CCSc2ncnc3nc[nH]c23)cc1
Data returned: N

Data request: Continue with Nc1nnc2cc(Cl)ccc2n1
Data returned: Y

Data request: Continue with O=C(CNCCO)Nc1ccc2ncnc(Nc3ccc(OCc4cccc(F)c4)c(Cl)c3)c2c1
Data returned: N

Data request: Continue with O=C(Nc1cccc(C2=NCCN2)c1)c1ccc(OCCCOc2ccc(C(=O)Nc3cccc(C4=NCCN4)c3)cc2)cc1
Data returned: N

Data request: Continue with CCC1(CC)NC(=O)c2c(c3ccc(Cl)c(Cl)c3n2C)C1C#N (configuration not stated)
Data returned: Y

Data request: Continue with COc1cc(Nc2cc(O)c3c(=O)cc(-c4ccccc4)oc3c2)cc(OC)c1
Data returned: N

Data request: Continue with Clc1nc(Cl)c2ncn(CCOCCn3cnc4c(Cl)nc(Cl)nc43)c2n1
Data returned: N

* * *

Tested on: HOP-62 NSCLC
Assay: NCI-60 one-dose screen, 48 h
Details: 10 µM unless noted
This is part of a sample that, as a whole, favours compounds with a hit. Of some 83,000 tested, about 20% had one in any assay. The source made the active and inactive calls. Rule for the calls: active = growth percent below 10; inactive = the rest.
Returns: one label drawn from active, inactive

Example results:
CCCCCCCC(=O)Nc1nc2[nH]c(CN3CCN(Cc4cccc(I)c4)CC3)c(CN3CCN(Cc4cccc(I)c4)CC3)c2c(=O)[nH]1	active
CO[C@@H]1[C@H](N(C)C(=O)c2ccccc2)C[C@@H]2O[C@]1(C)n1c3ccccc3c3c4c(c5c6ccccc6n2c5c31)C(=O)NC4=O	inactive
COC(=O)C1NC(=S)N(c2ccc(Cl)cc2)C1/C=C/c1ccccc1 (centres undefined)	inactive
COc1ccccc1C(C[N+](=O)[O-])c1c(-c2ccccc2)[nH]c2cc(C)ccc12 (centres undefined)	inactive
O=C1/C(=C/c2ccc(O)cc2)COc2ccc(-c3ccccc3)cc21	inactive

Data request: Check the results log: what was the call for COc1ccc(C(O)c2cc3c(N)c(C(=O)Nc4cccc(OC)c4)sc3nc2C)cc1 (centres undefined) ?
Data returned: inactive

* * *

System: LOX IMVI melanoma
Assay: NCI-60 one-dose screen, 48 h (100 = growth as untreated, 0 = no growth, -100 = all killed)
Details: 10 µM unless noted
The panel holds about 83,000 compounds, 20% with a hit somewhere; the sample as a whole holds those more often.
A collection of molecules and their measured growth
// return numeric value only (unit: %, not printed)

COc1ccc(/C(C)=N/NC(=O)CSc2nc3ccccc3c(=O)n2Cc2ccc(S(N)(=O)=O)cc2)c(OC)c1	94.2
Cc1ccccc1C(c1ccccc1)c1ccccc1C	94.9
O=C1CCCCCCCCC(O)C(O)CCCC(c2cccs2)O1 (centres undefined)	96.5
CCCCCCC/C=C/[C@H]1O[C@]2(O)C(=O)C=C3C[C@@H](O[C@@H]4O[C@H](CO)[C@@H](O)C(O)[C@@H]4O)C[C@@H]3[C@H]2C=C1C (some centres undefined)	-76.1
C1=C2CNCC3=Cc4ccc5ccccc5c4OC23Oc2c1ccc1ccccc21	18.9
Clc1ccc(N2N=C(c3cccc(Nc4ccncc4)c3)CC2c2ccc3c(c2)OCO3)cc1 (centres undefined)	-74.4
COc1cc(CCNc2nc3cc(N)cc(N)c3nc2-c2ccccc2)cc(OC)c1	-79.7
O=C(Cc1ccc(/C=C/C(=O)c2ncc[nH]2)cc1)Nc1ccc(C(F)(F)F)cc1	-80

Data request: Give the reported growth for Cc1cc(NC(=O)c2cnc(N3CCN(CCOCCOCCOCCOCCC(=O)N[C@H](C(=O)N4C[C@H](O)C[C@H]4C(=O)N[C@@H](C)c4ccc(-c5scnc5C)cc4)C(C)(C)C)CC3)cn2)c2ncccc2c1 (system: LOX IMVI melanoma).
Data returned: -85.8

* * *

System: MDA-MB-231 breast
Assay: NCI-60 one-dose screen, 48 h (100 = growth as untreated, 0 = no growth, -100 = all killed)
Conditions: 10 µM unless noted
The panel holds about 83,000 compounds, 20% with a hit somewhere; the sample as a whole holds those more often.
Assign true whenever growth does not fall below 40%; assign false whenever it does.

O=C1c2cccnc2C(=O)c2nc3cc(N4CCN(C5CC5)CC4)ccc3nc21	false
COc1ccc(-c2nc(SC(C)C)nc(NNC(N)=O)c2C#N)cc1	true
CCCCCCCCCCCCCCCC(=O)OC[C@@]1(O)C[C@@]23CC[C@@H]4C(C)(C)CCC[C@@]4(C)[C@@H]2CC[C@H]1C3	true

Data request: Confirm if growth reported for the compound CC(=O)Nc1ccc(S(=O)(=O)NC2CCCCC2)cc1 is 40% or above.
Data returned: true

Data request: Continue with COc1ccc(C(=O)c2cc3c(N)c(C(=O)Nc4ccc(Br)cc4)sc3nc2C)cc1
Data returned: true

Data request: Continue with COc1ccccc1/C=C1\COc2ccc(-c3ccccc3)cc2C1=O
Data returned: true

Data request: Continue with Cn1c(COC(=O)N2CCCCC2)nc2c(N3CCOCC3)nc(-c3ccccc3)nc21
Data returned: false

Data request: Continue with CC1(C)[C@H](O)CC[C@]2(C)[C@@H]1CC[C@@]13C[C@@H](CC[C@H]12)[C@@](O)(CO)C3
Data returned: true

Data request: Continue with CC(=O)N1N=C(c2cccc(Nc3ccncc3)c2)CC1c1ccccc1 (stereo not given)
Data returned: true

Data request: Continue with CN1CCN(c2cnc(C(=O)Nc3cc(F)cc4cccnc34)cn2)CC1
Data returned: false

* * *

System: SK-OV-3 ovarian
Assay: NCI-60 one-dose screen, 48 h (100 = growth as untreated, 0 = no growth, -100 = all killed)
Conditions: 10 µM unless noted
About 83,000 compounds went through this panel and 20% of them were active in at least one assay; those are over-represented in the sample as a whole. Activity calls are given as the source filed them. How the source made its calls: active means growth percent below 10; inactive means the rest.
Property Label: growth

For orientation, consider the following solved cases.
Nc1c(C(=O)Nc2cccc3ccncc23)sc2nc3c(cc12)C(=O)CCC3	35.3% (inactive)
O=C1/C(=C/c2ccc(O)cc2)COc2ccc(-c3ccccc3)cc21	107% (inactive)

Data request: Give the reported growth for CCCCCCCCN1C(=O)/C(=c2\sc3n(c2=O)C2C(NN=3)N(CC)C(=O)N2CC)c2ccccc21 (configuration not stated) (system: SK-OV-3 ovarian).
Data returned: 90.6% (inactive)

Data request: Continue with Cc1ccc(C2C3CC4CCCCC4N3[C@@]3(C(=O)Nc4cc(Cl)ccc43)C2C(=O)c2nc3ccccc3[nH]2)cc1 (some centres not stated)
Data returned: 77.6% (inactive)

Data request: Continue with COc1ccc(NC(=O)c2sc3nc(C)c(C(O)c4ccc(OC)cc4)cc3c2N)cc1 (configuration not stated)
Data returned: 38.5% (inactive)

Data request: Continue with CC(=O)N1N=C(c2cccc(Nc3ccncc3)c2)CC1c1ccccc1 (configuration not stated)
Data returned: 84.2% (inactive)

Data request: Continue with Nc1nnc2cc(Cl)ccc2n1
Data returned: 96.5% (inactive)

Data request: Continue with COc1ccc(Cc2nc3cc(OC)c(OC)cc3c(=O)[nH]2)cc1
Data returned: 148% (inactive)

Data request: Continue with CC(=O)c1cccc(NS(=O)(=O)c2cccc(C(=O)Nc3ccc(Br)cc3)c2)c1
Data returned: 58.1% [25 µM] (inactive)

Data request: Continue with CC1=CC[C@@H]2CC[C@]3(C)[C@H](CC[C@@H]4[C@@]5(C)CCCNC(C)(C)[C@@H]5CC[C@]43C)[C@H]2[C@@H]1C
Data returned: 103% (inactive)

Data request: Continue with N#CSCC1CC(O)(c2ccccc2)C(c2ccccc2)C(c2ccc(F)cc2)O1 (configuration not stated)
Data returned: 80.2% (inactive)

Data request: Continue with CN(C)C(=O)c1cc2cnc(Nc3ccc(-c4csc5c(=O)cc(N6CCOCC6)oc45)cc3)nc2n1C1CCCC1
Data returned: -28.3% (active)

Data request: Continue with FC(F)(F)Oc1cccc(-c2cc(NCCCCCCNc3cc(-c4cccc(OC(F)(F)F)c4)nc4ccc(N5CCCC5)cc34)c3cc(N4CCCC4)ccc3n2)c1
Data returned: 89.8% (inactive)

Data request: Continue with COc1ccc(C(O)c2cc3c(N)c(C(=O)Nc4ccc(Cl)cc4)sc3nc2C)cc1 (configuration not stated)
Data returned: 32.1% (inactive)

Data request: Continue with CCCCCCNC(=O)Oc1ccc(/C(=C(/CC)Cc2ccccc2)c2ccc(OCCN(CC)CC)cc2)cc1
Data returned: 89% (inactive)

Data request: Continue with O=C(Nc1ccc2cc3ccc(NC(=O)NC4CCCCC4)cc3nc2c1)NC1CCCCC1
Data returned: 95.4% (inactive)

Data request: Continue with C=Cc1cc[n+](CCCCCCCCCCCC)cc1
Data returned: 144% (inactive)

Data request: Continue with CC(=O)c1c(-c2ccc(OC(F)(F)F)cc2)nc2ccccn12
Data returned: 97.6% (inactive)

Data request: Continue with CN1CCN(Cc2ccc(NC(=O)c3cncc(C#Cc4cnccc4C(F)(F)F)c3)cc2C(F)(F)F)CC1
Data returned: 89% (inactive)
